Target: NS3-NS4 protease (Hepatitis C virus genotype 1a, UniProt P27958)
Construct: Recombinant E. coli or Baculovirus full-length NS3 was diluted to 3.33 μM with assay buffer; made in house; host or cells: E. coli or baculovirus (BV) system
Sequence (P27958 1027-1657): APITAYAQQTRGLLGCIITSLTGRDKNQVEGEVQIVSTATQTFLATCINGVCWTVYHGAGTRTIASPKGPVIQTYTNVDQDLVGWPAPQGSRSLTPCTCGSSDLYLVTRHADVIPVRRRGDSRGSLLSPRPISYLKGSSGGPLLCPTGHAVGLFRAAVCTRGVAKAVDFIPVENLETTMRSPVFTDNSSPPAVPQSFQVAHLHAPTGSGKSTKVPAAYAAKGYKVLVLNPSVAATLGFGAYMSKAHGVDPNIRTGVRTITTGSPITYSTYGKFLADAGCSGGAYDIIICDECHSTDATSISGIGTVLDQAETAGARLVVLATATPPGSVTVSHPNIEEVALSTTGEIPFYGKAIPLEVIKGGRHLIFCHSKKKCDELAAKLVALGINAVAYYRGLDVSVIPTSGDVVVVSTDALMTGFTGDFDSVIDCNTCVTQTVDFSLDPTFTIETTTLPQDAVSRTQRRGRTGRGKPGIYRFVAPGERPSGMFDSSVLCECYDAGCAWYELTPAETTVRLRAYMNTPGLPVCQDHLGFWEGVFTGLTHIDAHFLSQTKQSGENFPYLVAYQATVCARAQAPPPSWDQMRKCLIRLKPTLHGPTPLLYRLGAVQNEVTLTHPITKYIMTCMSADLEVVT
Assay: NS3-NS4 protease assay / NS3 inhibition assay, Section D
Type: biochemical
pIC50: −log10 of the molar value.
Measured pIC50 values are reported for all entries that follow.

Some solved cases for reference:
- Molecule: "CC(C)(C)OC(=O)N[C@H]1CCCCC/C=C\\[C@@H]2C[C@@]2(C(=O)NS(=O)(=O)C2CC2)NC(=O)[C@@H]2C[C@@H](NC(=O)c3cc4ccccc4[nH]3)CN2C1=O [Example 31]"
  Assay system: "NS3-NS4 protease (Hepatitis C virus genotype 1a, UniProt P27958)"
  pIC50: "> 7.00"
- Molecule: "CC(C)(C)OC(=O)N[C@H]1CCCCC/C=C\\[C@@H]2C[C@@]2(C(=O)NS(=O)(=O)C2CC2)NC(=O)[C@@H]2C[C@@H](NC(=O)c3cnn(-c4ccccc4)c3C(F)(F)F)CN2C1=O [Example 21]"
  Assay system: "NS3-NS4 protease (Hepatitis C virus genotype 1a, UniProt P27958)"
  pIC50: "> 7.00"
- Molecule: "CC(C)(C)OC(=O)N[C@H]1CCCCC/C=C\\[C@@H]2C[C@@]2(C(=O)NS(=O)(=O)C2CC2)NC(=O)[C@@H]2C[C@@H](NC(=O)c3ccc(F)c(F)c3)CN2C1=O [Example 15]"
  Assay system: "NS3-NS4 protease (Hepatitis C virus genotype 1a, UniProt P27958)"
  pIC50: "> 7.00"
- Molecule: "CC(C)(C)OC(=O)N[C@H]1CCCCC/C=C\\[C@@H]2C[C@@]2(C(=O)O)NC(=O)[C@@H]2C[C@@H](NC(=O)c3cc4ccccc4o3)CN2C1=O [Example 66]"
  Assay system: "NS3-NS4 protease (Hepatitis C virus genotype 1a, UniProt P27958)"
  pIC50: "> 6.00"

Turning now to a further molecule:
## Task Quick one: give measured pIC50 for COc1cc2cc(C(=O)N[C@@H]3C[C@H]4C(=O)N[C@]5(C(=O)NS(=O)(=O)C6CC6)C[C@H]5/C=C\CCCCC[C@H](NC(=O)OC(C)(C)C)C(=O)N4C3)[nH]c2cc1OC [Example 37]
## Result > 7.00

---

Target: NS3-NS4A protease (Hepatitis C virus genotype 1a)
Construct: Recombinant E. coli or Baculovirus full-length NS3 was diluted to 3.33 μM with assay buffer; made in house; host or cells: E. coli or baculovirus (BV) system
Sequence (P27958 1027-1657): as above
Assay: NS3-NS4A protease assay (NS3 inhibition assay, RETS1 substrate), Section B
Assay type: biochemical
Method: NS3 complex formation with NS4A-2 Recombinant E. coli or Baculovirus full-length NS3 was diluted to 3.33 μM with assay buffer and the material transferred to an eppendorf tube and place in water bath in 4° C. refrigerator. […] The plate was read in kinetic mode on the Molecular Devices SpectraMax Gemini XS plate reader. […] IC50s were determined using a four parameter curve fit equation, and converted to Ki's using the following Km's: […]
Listing of recorded IC50 by entry.

- Smi: "CC(C)[C@@H](N)C(=O)N[C@H]1CCCCC/C=C\\[C@@H]2C[C@@]2(C(=O)O)NC(=O)[C@@H]2C[C@@H](OC(=O)N3CCc4ccccc4C3)CN2C1=O"
  Measurement: "< 10000 nM"
- Smi: "CC(C)[C@@H](NC(=O)c1cccnc1)C(=O)N[C@H]1CCCCC/C=C\\[C@@H]2C[C@@]2(C(=O)O)NC(=O)[C@@H]2C[C@@H](OC(=O)N3CCc4ccccc4C3)CN2C1=O"
  Measurement: "< 1000 nM"
- Smi: "CC(=O)N[C@H](C(=O)N[C@H]1CCCCC/C=C\\[C@@H]2C[C@@]2(C(=O)NS(=O)(=O)C2CC2)NC(=O)[C@@H]2C[C@@H](OC(=O)N3Cc4cccc(F)c4C3)CN2C1=O)C1CCCCC1"
  Measurement: "< 100 nM"

## Task Answer with the recorded IC50 of CC(C)[C@@H](NC(=O)c1ccc(N(C)C)nc1)C(=O)N[C@H]1CCCCC/C=C\[C@@H]2C[C@@]2(C(=O)O)NC(=O)[C@@H]2C[C@@H](OC(=O)N3CCc4ccccc4C3)CN2C1=O only.
## Result < 1000 nM

---

Target: NS3-NS4 protease (Hepatitis C virus genotype 1a, UniProt P27958)
Construct: Recombinant E. coli or Baculovirus full-length NS3 was diluted to 3.33 μM with assay buffer; made in house; host or cells: E. coli or baculovirus (BV) system
Test: NS3-NS4 protease assay / NS3 inhibition assay, Section C
Format: biochemical
Details: read-out: NS3-NS4 IC50
Readout label: IC50

Examples with answers:
- Compound: "CC(C)(C)OC(=O)N[C@H]1CCCCC/C=C\\[C@@H]2C[C@@]2(C(=O)NS(=O)(=O)NC2CC2)NC(=O)[C@@H]2C[C@@H](OC(=O)N3CCc4ccccc4C3CN3CCCCC3)CN2C1=O (some centres unmarked) [Compound 108]"
  Assay system: "NS3-NS4 protease (Hepatitis C virus genotype 1a, UniProt P27958)"
  IC50: "< 1000 nM"
- Compound: "CC(C)(C)OC(=O)N[C@H]1CCCCC/C=C\\[C@@H]2C[C@@]2(C(=O)NS(=O)(=O)N2CCCC2)NC(=O)C2C[C@@H](OC(=O)N3CCc4ccccc4C3CN3CCOCC3)CN2C1=O (some centres unmarked) [Compound 111]"
  Assay system: "NS3-NS4 protease (Hepatitis C virus genotype 1a, UniProt P27958)"
  IC50: "< 100 nM"
- Compound: "CC(C)(C)OC(=O)N[C@H]1CCCCC/C=C\\[C@@H]2C[C@@]2(C(=O)NS(=O)(=O)N2CCCC2)NC(=O)C2C[C@@H](OC(=O)NC(CN3CCOCC3)c3ccccc3)CN2C1=O (some centres unmarked) [Compound 112]"
  Assay system: "NS3-NS4 protease (Hepatitis C virus genotype 1a, UniProt P27958)"
  IC50: "< 100 nM"
- Compound: "CN(C)S(=O)(=O)NC(=O)[C@@]12C[C@H]1C=CCCCCC[C@H](NC(=O)OC(C)(C)C)C(=O)N1C[C@H](OC(=O)N3Cc4ccccc4C3)C[C@H]1C(=O)N2 [Compound 101]"
  Assay system: "NS3-NS4 protease (Hepatitis C virus genotype 1a, UniProt P27958)"
  IC50: "< 100 nM"
- Compound: "CC(C)(C)OC(=O)N[C@H]1CCCCC/C=C\\[C@@H]2C[C@@]2(C(=O)NS(=O)(=O)Nc2ccc(C(F)(F)F)cc2)NC(=O)[C@@H]2C[C@@H](OC(=O)N3Cc4ccccc4C3)CN2C1=O [Compound 132]"
  Assay system: "NS3-NS4 protease (Hepatitis C virus genotype 1a, UniProt P27958)"
  IC50: "< 100 nM"
- Compound: "CC(C)(C)OC(=O)N[C@H]1CCCCC/C=C\\[C@@H]2C[C@@]2(C(=O)NS(=O)(=O)N2CCOCC2)NC(=O)[C@@H]2C[C@@H](OC(=O)N3Cc4ccccc4C3)CN2C1=O [Compound 104]"
  Assay system: "NS3-NS4 protease (Hepatitis C virus genotype 1a, UniProt P27958)"
  IC50: "< 100 nM"
- Compound: "CC(C)(C)OC(=O)N[C@H]1CCCCC/C=C\\[C@@H]2C[C@@]2(C(=O)NS(=O)(=O)Nc2ccc(C#N)cc2)NC(=O)[C@@H]2C[C@@H](OC(=O)N3Cc4ccccc4C3)CN2C1=O [Compound 131]"
  Assay system: "NS3-NS4 protease (Hepatitis C virus genotype 1a, UniProt P27958)"
  IC50: "< 100 nM"
- Compound: "CN1CCN(S(=O)(=O)NC(=O)[C@@]23C[C@H]2/C=C\\CCCCC[C@H](NC(=O)OC(C)(C)C)C(=O)N2C[C@H](OC(=O)N4Cc5ccccc5C4)C[C@H]2C(=O)N3)CC1 [Compound 118]"
  Assay system: "NS3-NS4 protease (Hepatitis C virus genotype 1a, UniProt P27958)"
  IC50: "< 100 nM"
- Compound: "CC(C)(C)OC(=O)N[C@H]1CCCCC/C=C\\[C@@H]2C[C@@]2(C(=O)NS(=O)(=O)N2CCOCC2)NC(=O)[C@@H]2C[C@@H](OC(=O)N3CCc4ccccc4C3CN3CCCCC3)CN2C1=O (some centres unmarked) [Compound 110]"
  Assay system: "NS3-NS4 protease (Hepatitis C virus genotype 1a, UniProt P27958)"
  IC50: "< 1000 nM"
- Compound: "Cc1ccc(NS(=O)(=O)NC(=O)[C@@]23C[C@H]2/C=C\\CCCCC[C@H](NC(=O)OC(C)(C)C)C(=O)N2C[C@H](OC(=O)N4Cc5ccccc5C4)C[C@H]2C(=O)N3)cc1 [Compound 130]"
  Assay system: "NS3-NS4 protease (Hepatitis C virus genotype 1a, UniProt P27958)"
  IC50: "< 100 nM"

// next item, IC50 requested
## Task Note down IC50 recorded for CC(C)(C)OC(=O)N[C@H]1CCCCC/C=C\[C@@H]2C[C@@]2(C(=O)NS(=O)(=O)N2CCNCC2)NC(=O)[C@@H]2C[C@@H](OC(=O)N3Cc4ccccc4C3)CN2C1=O [Compound 120]
## Result < 100 nM
